B1: TMEM40 (parent)
chain: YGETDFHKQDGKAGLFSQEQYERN

Variants of: B1
TEST_NAME: protein stability index of a GFP-peptide fusion (GPS, HEK-293T) (PSI 1-6); higher = more stable;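 note: lentivirally expressed fusions sorted by FACS into six bins by GFP to DsRed ratio, PSI derived from sequencing read proportions per bin multiplied by bin number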
CONDITION: c terminus: a fixed tail appended
Assign MET to entries whose protein stability index meets or exceeds 4; assign NOT MET to the rest.

| VARIANT_DESCRIPTION | DISCRETE_LABEL |
| --- | --- |
| T4R | NOT MET |
| Q9E | MET |
| G14K | MET |
| Q9G | NOT MET |
| K12Q | MET |
| Q20D | MET |
| N24G | MET |
| Q18C | NOT MET |
| R23M | MET |
| R23S | MET |
| F16T | MET |
| G11H | MET |
| T4V | MET |
| D5H | NOT MET |
| E19Q | NOT MET |
| F6Q | MET |
| Y21N | MET |
| D10M | NOT MET |
| G14F | NOT MET |
| L15R | MET |
| Q18R | NOT MET |
| Y21R | MET |
| N24P | NOT MET |
| Q18V | NOT MET |
| K12V | MET |
| T4W | NOT MET |
| D5K | NOT MET |
| G14R | NOT MET |
| Q18E | MET |
| H7C | MET |
| Q18S | NOT MET |
| D10W | NOT MET |
| F16E | MET |
| K12F | MET |
| A13N | MET |
| N24A | NOT MET |
| L15C | MET |
| S17I | NOT MET |
| F6N | MET |
| F16L | MET |
| Q20C | NOT MET |
| F6R | MET |
| K12W | NOT MET |
| E19D | MET |
| R23G | MET |
| F6H | MET |
| E3H | NOT MET |
| E3G | NOT MET |
| T4Q | MET |
| E19A | NOT MET |
| F6I | MET |
| E3T | NOT MET |
| G2R | MET |
| E19M | NOT MET |
